experiment: yeast display, Sf9 membrane polyspecificity reagent, FACS + sequencing; frameworks hold sequencing errors
Measured parameter: polyreactivity (PSR sort gate)

primary_sequence=QVQLVESGGGLVQAGRSLRLSCAASGFIFRYYAMGWYRQAPGKETELVAAIRGGGSTYYADSVKGRFTISRDNAKNTVYLQMKSLNPEDTAVYYCAVRWVSRFGISSYDYWGQGTQVTVSS recorded_result="high polyreactivity"
primary_sequence=QVQLQESGGGLVQAGGSLRLSCAASGSISLGRGMGWYRQAPGKREFVVTIAASVNWGTNTNYADSVKGRFTISRDNAKNTLYLQMNSLKPEDTAVYYCAVLPEWETRHDYWGHGTQVTVSS recorded_result="low polyreactivity"
primary_sequence=QVHLVESGGGLVQAGGSLRLSCAASGSILQRNAMGWYRQAPGKERELVASITFSAGRTYYADSVKGRFTISRDNAKNTVYLQMKSLKPEDTAVYYCAADPYSYGARGARGDYWGQGTQVSVSS recorded_result="low polyreactivity"
primary_sequence=QEQLQESGGGLVQAGDSPRLSCAESGYITARTGMGSYRQAPGKEREFVAGIASGTRTHYADSVKGRFTISRDNAKNAVYLQMTSLKPEDTAVYYCAATFGFFYYQYDYWGQGTQVTVSS recorded_result="low polyreactivity"
primary_sequence=QFQLVESGGGLVQAGGSLRLSCAASGIILRGYAMGWYRQAPGKERELVASISRGGSTNYADSVKGRFTISRDNAKNTVYLQMNSLKPEDTAVYYSNARIWYYGRYQGAYRFDYWGQGTQVTVSS recorded_result="high polyreactivity"
primary_sequence=QDQLVESGGGLVQAGGSLRLSCAASGSIFYAYTMGWYRQAPGKEMELVASITKSGGSTYYADSVKGRFTISRDNAKNTVYLQMNSLKPEDTAVYYCAAVVGRNRTRSYGYWGQGTQVTVSS recorded_result="high polyreactivity"

(Q) Given `QVQLVESGGGLVQAGGSLRLSCAASGSIFWNNAMGWYRQAPGKERELVAGISSAGSTNYADSVKGRFTISRDNAKNTVYLQMNILKPEDTAVYYCAAVYYGGFSDYDYWGQGTQVTVSS` , state its recorded polyreactivity (PSR sort gate).
(A) low polyreactivity

(Q) Given `QVQMQEIGGGLVQASGSLRLSCAASGNIFPDYFMGWYRLAPGKEREFVANITGGSTTNYADSVKGRFTISRDNAKNTVYLQINSLKPEDTAVYYCAVNFGTEQHAYWGQGTQVTVSS` , state its recorded polyreactivity (PSR sort gate).
(A) high polyreactivity

(Q) Given `QVQLVESGGGLVQAGGSLRLSCAASGYIFKVNSMGWYRPAPGKERELDADISSNSGSTRYADSVKARFTISRDNAKNTVYLQMNSLKQDDTAVYYCAADGRYWVKPGSPWDRSRYDYWGQGTQVTVSS` , state its recorded polyreactivity (PSR sort gate).
(A) low polyreactivity

(Q) Given `QVQLVESGGGLVQAGGSLRLSFDASGLIFYYYTMGWYRPAPGKERELVAAITWTDVDTYYADSVKGRFTISRDNAKNTVYLQMNSLKPEDTAVYYCAAEGGRTSYGGSGELDYWGQGTQVTVSS` , state its recorded polyreactivity (PSR sort gate).
(A) high polyreactivity

(Q) Given `QVQLVESGGGLVQAGGSLRLSCAASGFTFRRNAMGWYRQAPGKERELVAAITYNGGTTYYADSVKGRFTISRDNAKNTVYLLMNSLKPEDTAVYYCNAPYGRQGYDYWGQGTQVTVSS` , state its recorded polyreactivity (PSR sort gate).
(A) low polyreactivity
